The reported measurements were obtained from the Immune Epitope Database (IEDB).

target: HLA-A*02:03; assay: IEDB peptide-MHC binding, purified MHC/competitive/radioactivity; filed as Kd, often an IC50 or EC50 that approximates it; bounds were set here for any values at or beyond the usual limits of such assays; details: source organism: Dengue virus 1 Singapore/S275/1990
Experimental readout: pKd
Lab note — pKd values are minus log10 of concentrations in M.

Prompt line: Tell me the measured pKd of IMAVGIVSI , please.
Response line: 9.19

---

Listed sequences paired with reported Kd
target: HLA-B*57:01; assay: IEDB peptide-MHC binding, purified MHC/competitive/fluorescence; filed as Kd, often an IC50 or EC50 that approximates it; bounds were set here for any values at or beyond the usual limits of such assays; conditions: source organism: Orthohantavirus tulaense

1) FGAAVSLLF = ≥ 20 µM

Now look at this entry.
Prompt line: Tell me the measured Kd of FMFNELLAL , please.
Response line: ≥ 20 µM
